System: CCRF-CEM leukemia
Assay: NCI-60 one-dose screen, 48 h (100 = growth as untreated, 0 = no growth, -100 = all killed)
Conditions: 10 µM
Compounds without any hit were thinned out: in the full panel of roughly 83,000, 20% have a hit.
Below, each entry is listed alongside its reported growth.
Record the value in %, omitting the unit from your answer.

O=C1Nc2c(c(=O)n(-c3ccccc3)c3ccccc23)C(c2ccc(Cl)cc2)N1 (stereo unspecified) : 79.5
COc1ccc(-c2nc(N)n(C(=S)Nc3ccccc3)n2)cc1 : 98.7
COC(=O)C1CC(=O)N(C(=O)Nc2ccc(Cl)cc2Cl)C1 (stereo unspecified) : 103
COc1ccc2c(c1)/C(=C1/S/C(=N/c3nnc(C)s3)NC1=O)C(=O)N2Cc1ccc(Br)cc1 : 21.2
COc1cc(NC(C)CCCN)c2nccc(C)c2c1OC (stereo unspecified) : 64.8
COc1cc(/C=C/C(=O)c2ccc(F)cc2)ccc1OCCCCOc1cc2c(cc1OC)C(=O)N1CCCC1C=N2 (stereo unspecified) : -30.3
COc1cc(-c2nc3c(c(C)nc4c3nnn4-c3ccccc3)c(=O)o2)cc(OC)c1OC : 96.2
CC(=O)CCS(=O)c1ccccc1 (stereo unspecified) : 101
O=C(/C=C/c1cccc(O)c1)c1cccc(-n2cc(-c3ccc(Cl)cc3)[nH]c2=O)c1 : -4.75
C=C(C)C(C(=O)OCC)(C(=O)OCC)C(C)C : 98.2

Proceeding to the next compound to report its growth.
Look up growth for this compound: COc1ccc(Cn2cc3c(c2-c2ccc(OC)cc2)CCc2cnoc2-3)cc1
9.28
